Numbers sourced from patent US4436733A.

Property: MIC (minimal inhibitory concentration); scope: individual compounds
# System: Streptococcus Group D X66
# assay-method-text: standard agar-dilution assay, MIC
# Type: cell-based
# Description: The MIC's in Table III were determined by standard agar-dilutionassays. The MIC's in Table IV were obtained using a conventional broth-dilution microtiter test.

The examples below pair each entry with its known result.
CCC(=O)OC1C(C)OC(OC2C(C)OC(OC3C(CC=O)CC(C)C(=O)C=CC(C)=CC(CO)C(CC)OC(=O)CC(O)C3C)C(O)C2N(C)C)CC1(C)O (stereo not drawn) [Compound 16, 4"-O-Propionyl-DMT]
0.5
CCC1OC(=O)CC(O)C(C)C(OC2OC(C)C(OC3CC(C)(O)C(OC(=O)Cc4ccccc4)C(C)O3)C(N(C)C)C2OC(C)=O)C(CC=O)CC(C)C(=O)C=CC(C)=CC1COC(=O)Cc1ccccc1 (stereo not drawn) [Compound 5, 2'-O-Acetyl-23,4"-Di-O-Phenylacetyl-DMT]
2

Problem: Quick one: MIC (minimal inhibitory concentration) for CCC(=O)OCC1C=C(C)C=CC(=O)C(C)CC(CC=O)C(OC2OC(C)C(OC3CC(C)(O)C(OC(=O)CC)C(C)O3)C(N(C)C)C2O)C(C)C(O)CC(=O)OC1CC (stereo not drawn) [Compound 4, 23,4"-Di-O-Propionyl-DMT] ?
Solution: 1

---

# Test system: Streptococcus Group D X66
# assay-method-text: standard agar-dilution assay, MIC
# Type: cell-based
quantity-name: MIC (minimal inhibitory concentration)
Lab note: jot down the number only; don't add units.

Examples with their reported MIC (minimal inhibitory concentration) follow.
CCC1OC(=O)CC(O)C(C)C(OC2OC(C)C(OC3CC(C)(O)C(OC(=O)C(Cl)(Cl)Cl)C(C)O3)C(N(C)C)C2OC(C)=O)C(CC=O)CC(C)C(=O)C=CC(C)=CC1COC(=O)C(Cl)(Cl)Cl (centres unmarked)
4
CCC1OC(=O)CC(O)C(C)C(OC2OC(C)C(OC3CC(C)(O)C(OC(C)=O)C(C)O3)C(N(C)C)C2O)C(CC=O)CC(C)C(=O)C=CC(C)=CC1COC(C)=O (centres unmarked)
0.5
CCC(=O)OCC1C=C(C)C=CC(=O)C(C)CC(CC=O)C(OC2OC(C)C(OC3CC(C)(O)C(OC(=O)CC)C(C)O3)C(N(C)C)C2OC(C)=O)C(C)C(O)CC(=O)OC1CC (centres unmarked)
1
CCC1OC(=O)CC(O)C(C)C(OC2OC(C)C(OC3CC(C)(O)C(OC(C)=O)C(C)O3)C(N(C)C)C2OC(C)=O)C(CC=O)CC(C)C(=O)C=CC(C)=CC1COC(C)=O (centres unmarked)
1
CCC1OC(=O)CC(OC(=O)C(Cl)(Cl)Cl)C(C)C(OC2OC(C)C(OC3CC(C)(O)C(O)C(C)O3)C(N(C)C)C2OC(C)=O)C(CC=O)CC(C)C(=O)C=CC(C)=CC1COC(=O)C(Cl)(Cl)Cl (centres unmarked)
2

Problem: Report MIC (minimal inhibitory concentration) for CCC(=O)OC1C(C)OC(OC2C(C)OC(OC3C(CC=O)CC(C)C(=O)C=CC(C)=CC(C)C(CC)OC(=O)CC(O)C3C)C(O)C2N(C)C)CC1(C)O (centres unmarked) tested on Streptococcus Group D X66.
Solution: 1

---

# Tested on: Pasteurella multocida 60A
# assay-method-text: conventional broth-dilution microtiter test, MIC
# Assay type: cell-based
# condition-notes: avian isolate
quantity-name: MIC (minimal inhibitory concentration)
Returns: the value as a bare number; no unit string appended.

CCC1OC(=O)CC(O)C(C)C(OC2OC(C)C(OC3CC(C)(O)C(OC(=O)CC(C)C)C(C)O3)C(N(C)C)C2O)C(CC=O)CC(C)C(=O)C=CC(C)=CC1C (stereo not drawn)
12.5

// next item, MIC (minimal inhibitory concentration) requested
Problem: Please look up its MIC (minimal inhibitory concentration): CCC(=O)OC1CC(=O)OC(CC)C(CO)C=C(C)C=CC(=O)C(C)CC(CC=O)C(OC2OC(C)C(OC3CC(C)(O)C(OC(=O)CC)C(C)O3)C(N(C)C)C2O)C1C (stereo not drawn)
Solution: 50

---

# Test system: Streptococcus Group 9960
# assay-method-text: standard agar-dilution assay, MIC
# Type: cell-based
Each entry below lists one item and its recorded MIC (minimal inhibitory concentration) value.
// response body must contain only the number

CCC1OC(=O)CC(O)C(C)C(OC2OC(C)C(OC3CC(C)(O)C(OC(=O)C(Cl)(Cl)Cl)C(C)O3)C(N(C)C)C2OC(C)=O)C(CC=O)CC(C)C(=O)C=CC(C)=CC1COC(=O)C(Cl)(Cl)Cl (stereo not shown) [Compound 11]
4
CCC1OC(=O)CC(O)C(C)C(OC2OC(C)C(OC3CC(C)(O)C(OC(=O)Cc4ccccc4)C(C)O3)C(N(C)C)C2OC(C)=O)C(CC=O)CC(C)C(=O)C=CC(C)=CC1COC(=O)Cc1ccccc1 (stereo not shown) [Compound 5, 2'-O-Acetyl-23,4"-Di-O-Phenylacetyl-DMT]
2
CCC(=O)OC1C(C)OC(OC2C(C)OC(OC3C(CC=O)CC(C)C(=O)C=CC(C)=CC(COC(=O)C(Cl)(Cl)Cl)C(CC)OC(=O)CC(O)C3C)C(OC(C)=O)C2N(C)C)CC1(C)O (stereo not shown) [Compound 14]
1
CCC1OC(=O)CC(O)C(C)C(OC2OC(C)C(OC3CC(C)(O)C(OC(C)=O)C(C)O3)C(N(C)C)C2OC(C)=O)C(CC=O)CC(C)C(=O)C=CC(C)=CC1COC(C)=O (stereo not shown) [Compound 1, 2',4",23-Tri-O-Acetyl-DMT]
1
CCC(=O)OC1CC(=O)OC(CC)C(C)C=C(C)C=CC(=O)C(C)CC(CC=O)C(OC2OC(C)C(OC3CC(C)(O)C(OC(=O)CC)C(C)O3)C(N(C)C)C2O)C1C (stereo not shown) [Compound 25, 3,4"-Di-O-propionyl-DMOT]
1
CCC(=O)OC1CC(=O)OC(CC)C(C)C=C(C)C=CC(=O)C(C)CC(CC=O)C(OC2OC(C)C(OC3CC(C)(O)C(OC(=O)CC)C(C)O3)C(N(C)C)C2OC(C)=O)C1C (stereo not shown) [Compound 23, 2'-O-Acetyl-3,4"-Di-O-Propionyl-DMOT]
1

Problem: # query: MIC (minimal inhibitory concentration) of entry CCC(=O)OCC1C=C(C)C=CC(=O)C(C)CC(CC=O)C(OC2OC(C)C(OC3CC(C)(O)C(OC(=O)CC)C(C)O3)C(N(C)C)C2OC(C)=O)C(C)C(OC(=O)CC)CC(=O)OC1CC (stereo not shown) [Compound 9, 2'-O-Acetyl-3,23,4"-Tri-O-Propionyl-DMT]
Solution: 1

Problem: Param item: CCC(=O)OC1CC(=O)OC(CC)C(COC(=O)C(Cl)(Cl)Cl)C=C(C)C=CC(=O)C(C)CC(CC=O)C(OC2OC(C)C(OC3CC(C)(O)C(OC(=O)CC)C(C)O3)C(N(C)C)C2OC(C)=O)C1C (stereo not shown) [Compound 15]
Solution: 1

Problem: Continue with CCC1OC(=O)CC(O)C(C)C(OC2OC(C)C(OC3CC(C)(O)C(OC(=O)Cc4ccccc4)C(C)O3)C(N(C)C)C2O)C(CC=O)CC(C)C(=O)C=CC(C)=CC1COC(=O)Cc1ccccc1 (stereo not shown) [Compound 6, 23,4"-Di-O-Phenylacetyl-DMT]
Solution: 0.5

Problem: Request: CCC(=O)OC1C(C)OC(OC2C(C)OC(OC3C(CC=O)CC(C)C(=O)C=CC(C)=CC(CO)C(CC)OC(=O)CC(O)C3C)C(O)C2N(C)C)CC1(C)O (stereo not shown) [Compound 16, 4"-O-Propionyl-DMT]
Solution: 0.5

---

# Tested on: Mycoplasma gallisepticum
# assay-method-text: conventional broth-dilution microtiter test, MIC
# Assay type: cell-based
# MIC (minimal inhibitory concentration) annotations
Please give only the number in your answer, with no unit.

Here's what some known entries look like.
CCC1OC(=O)CC(O)C(C)C(OC2OC(C)C(OC3CC(C)(O)C(OC(C)=O)C(C)O3)C(N(C)C)C2OC(C)=O)C(CC=O)CC(C)C(=O)C=CC(C)=CC1COC(C)=O (centres unmarked)
0.39
CCC1OC(=O)CC(O)C(C)C(OC2OC(C)C(OC3CC(C)(O)C(OC(=O)Cc4ccccc4)C(C)O3)C(N(C)C)C2OC(C)=O)C(CC=O)CC(C)C(=O)C=CC(C)=CC1C (centres unmarked)
6.25
CCC(=O)OC1CC(=O)OC(CC)C(C)C=C(C)C=CC(=O)C(C)CC(CC=O)C(OC2OC(C)C(OC3CC(C)(O)C(OC(=O)CC)C(C)O3)C(N(C)C)C2O)C1C (centres unmarked)
0.195
CCC(=O)OC1C(C)OC(OC2C(C)OC(OC3C(CC=O)CC(C)C(=O)C=CC(C)=CC(COC(=O)C(Cl)(Cl)Cl)C(CC)OC(=O)CC(O)C3C)C(OC(C)=O)C2N(C)C)CC1(C)O (centres unmarked)
0.39
CCC1OC(=O)CC(O)C(C)C(OC2OC(C)C(OC3CC(C)(O)C(OC(=O)Cc4ccccc4)C(C)O3)C(N(C)C)C2O)C(CC=O)CC(C)C(=O)C=CC(C)=CC1C (centres unmarked)
0.78
CCC1OC(=O)CC(O)C(C)C(OC2OC(C)C(OC3CC(C)(O)C(OC(=O)CC(C)C)C(C)O3)C(N(C)C)C2O)C(CC=O)CC(C)C(=O)C=CC(C)=CC1C (centres unmarked)
0.195
CCC(=O)OC1C(C)OC(OC2C(C)OC(OC3C(CC=O)CC(C)C(=O)C=CC(C)=CC(C)C(CC)OC(=O)CC(O)C3C)C(OC(C)=O)C2N(C)C)CC1(C)O (centres unmarked)
0.195
CCC1OC(=O)CC(O)C(C)C(OC2OC(C)C(OC3CC(C)(O)C(OC(=O)CC(C)C)C(C)O3)C(N(C)C)C2OC(C)=O)C(CC=O)CC(C)C(=O)C=CC(C)=CC1C (centres unmarked)
0.39

Problem: Consider the compound CCC1OC(=O)CC(O)C(C)C(OC2OC(C)C(OC3CC(C)(O)C(OC(C)=O)C(C)O3)C(N(C)C)C2O)C(CC=O)CC(C)C(=O)C=CC(C)=CC1COC(C)=O (centres unmarked) and give its measured MIC (minimal inhibitory concentration).
Solution: 0.097

Problem: And the next one, CCC(=O)OC1CC(=O)OC(CC)C(CO)C=C(C)C=CC(=O)C(C)CC(CC=O)C(OC2OC(C)C(OC3CC(C)(O)C(OC(=O)CC)C(C)O3)C(N(C)C)C2O)C1C (centres unmarked) ?
Solution: 0.097

Problem: Can you check CCC1OC(=O)CC(O)C(C)C(OC2OC(C)C(OC3CC(C)(O)C(OC(=O)COc4ccccc4)C(C)O3)C(N(C)C)C2OC(C)=O)C(CC=O)CC(C)C(=O)C=CC(C)=CC1COC(=O)COc1ccccc1 (centres unmarked) next?
Solution: 0.78

Problem: Same lookup for CCC(=O)OC1CC(=O)OC(CC)C(COC(=O)C(Cl)(Cl)Cl)C=C(C)C=CC(=O)C(C)CC(CC=O)C(OC2OC(C)C(OC3CC(C)(O)C(OC(=O)CC)C(C)O3)C(N(C)C)C2OC(C)=O)C1C (centres unmarked) , please.
Solution: 0.39

Problem: Thanks! And CCC(=O)OCC1C=C(C)C=CC(=O)C(C)CC(CC=O)C(OC2OC(C)C(OC3CC(C)(O)C(OC(=O)CC)C(C)O3)C(N(C)C)C2OC(C)=O)C(C)C(OC(=O)CC)CC(=O)OC1CC (centres unmarked) ?
Solution: 0.78

Problem: Request: CCC(=O)OC1C(C)OC(OC2C(C)OC(OC3C(CC=O)CC(C)C(=O)C=CC(C)=CC(C)C(CC)OC(=O)CC(O)C3C)C(O)C2N(C)C)CC1(C)O (centres unmarked)
Solution: 0.097

Problem: Another compound to check: CCC(=O)OCC1C=C(C)C=CC(=O)C(C)CC(CC=O)C(OC2OC(C)C(OC3CC(C)(O)C(OC(=O)CC)C(C)O3)C(N(C)C)C2O)C(C)C(O)CC(=O)OC1CC (centres unmarked)
Solution: 0.195
